target: KRAS G12S (Homo sapiens, UniProt P01116+P62937, G12S); experiment: Ras-Raf disruption/FRET/MOA assay, KRAS G12S; type: biochemical
Sequence (P01116 1-169 isoform P01116-2 G12S limits assumed, one chain of several): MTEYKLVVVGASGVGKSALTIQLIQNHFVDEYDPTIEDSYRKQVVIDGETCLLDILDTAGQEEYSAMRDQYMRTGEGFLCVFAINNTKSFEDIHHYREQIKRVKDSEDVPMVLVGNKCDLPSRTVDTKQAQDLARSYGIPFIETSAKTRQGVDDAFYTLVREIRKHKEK
pIC50: −log10 of the molar value.
Recorded pIC50, one value per entry.

{"columns": ["compound", "pIC50"],
 "data": [
  ["CCn1c(-c2cccnc2[C@H](C)OC)c2c3cc(ccc31)-c1cc(O)cc(c1)C[C@H](NC(=O)[C@H](C(C)C)N(C)C(=O)CN(C)C(=O)[C@@H]1CN1)C(=O)N1CCC[C@H](N1)C(=O)OCC(C)(C)C2 [Compound 150]", "7.00 to 8.00"],
  ["CCn1c(-c2cnccc2COC)c2c3cc(ccc31)-c1cc(O)cc(c1)C[C@H](NC(=O)[C@H](C(C)C)N(C)C(=O)CN(C)C(=O)[C@@H]1N[C@@H]1c1ccccc1)C(=O)N1CCC[C@H](N1)C(=O)OCC(C)(C)C2 [Compound 110]", "7.00 to 8.00"],
  ["CCn1c(-c2cnccc2COC)c2c3cc(ccc31)-c1cc(O)cc(c1)C[C@H](NC(=O)[C@H](C(C)C)N(C)C(=O)CN(C)C(=O)[C@H]1N[C@H]1c1ccccc1)C(=O)N1CCC[C@H](N1)C(=O)OCC(C)(C)C2 [Compound 116]", "6.00 to 7.00"],
  ["CCn1c(-c2cnccc2COC)c2c3cc(ccc31)-c1cc(O)cc(c1)C[C@H](NC(=O)[C@H](C(C)C)N(C)C(=O)CN(C)C(=O)C1CN1)C(=O)N1CCC[C@H](N1)C(=O)OCC(C)(C)C2 (stereo partly drawn) [Compound 33]", "7.00 to 8.00"],
  ["CCC(C)N(C)C(=O)c1cncc(-c2c3c4cc(ccc4n2CC)-c2cc(O)cc(c2)C[C@H](NC(=O)[C@H](C(C)C)N(C)C(=O)CN(C)C(=O)[C@H]2CN2)C(=O)N2CCC[C@H](N2)C(=O)OCC(C)(C)C3)c1 (stereo partly drawn) [Compound 144]", "6.00 to 7.00"],
  ["CCn1c(-c2cnccc2COC)c2c3cc(ccc31)-c1cc(O)cc(c1)C[C@H](NC(=O)[C@H](C(C)C)N(C)C(=O)CN(C)C(=O)[C@H]1CN1Cc1ccccc1)C(=O)N1CCC[C@H](N1)C(=O)OCC(C)(C)C2 (stereo partly drawn) [Compound 9]", "6.00 to 7.00"]
]}

###

Recorded pIC50, one value per entry.
molecular target: NRAS G12C (Homo sapiens, UniProt P01111+P62937, G12C); construct: His6; assay: Ras-Raf disruption/FRET/MOA assay, NRAS G12C; format: biochemical; settings: NRAS G12C; read-out: NRAS G12C FRET data IC50
Sequence (P01111 whole entry G12C): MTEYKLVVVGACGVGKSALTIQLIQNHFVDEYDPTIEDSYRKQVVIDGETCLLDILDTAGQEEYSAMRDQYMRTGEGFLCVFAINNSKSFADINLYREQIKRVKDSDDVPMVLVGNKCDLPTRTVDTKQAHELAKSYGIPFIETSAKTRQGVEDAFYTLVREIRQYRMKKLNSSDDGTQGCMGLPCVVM
Sequence (P62937 whole entry): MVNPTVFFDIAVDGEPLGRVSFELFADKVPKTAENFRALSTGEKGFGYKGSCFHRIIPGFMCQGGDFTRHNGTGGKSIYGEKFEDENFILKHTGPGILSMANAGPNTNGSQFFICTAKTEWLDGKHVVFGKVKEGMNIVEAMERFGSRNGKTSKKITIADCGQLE
pIC50: −log10 of the molar value.
property_label: pIC50

{"columns": ["structure_string", "target_desc", "meas_value"],
 "data": [
  ["CCn1c(-c2cccnc2[C@H](C)OC)c2c3cc(ccc31)-c1cc(cc(C(F)F)c1)C[C@H](NC(=O)[C@H](C1CCCC1)N1CC[C@]3(CCN(C(=O)[C@@H]4N[C@@H]4C4CC4)C3)C1=O)C(=O)N1CCC[C@H](N1)C(=O)OCC(C)(C)C2", "NRAS G12C (Homo sapiens, UniProt P01111+P62937, G12C)", "5.00 to 6.00"],
  ["CCn1c(-c2cnccc2COC)c2c3cc(ccc31)-c1cc(O)cc(c1)C[C@H](NC(=O)[C@H](C(C)C)N(C)C(=O)[C@H]1CCN(C(=O)N3C[C@H]3C(=O)OC)C1)C(=O)N1CCC[C@H](N1)C(=O)OCC(C)(C)C2", "NRAS G12C (Homo sapiens, UniProt P01111+P62937, G12C)", "6.00 to 7.00"],
  ["CCn1c(-c2cccnc2[C@H](C)OC)c2c3cc(ccc31)-c1cc(O)cc(c1)C[C@H](NC(=O)[C@H](C(C)C)N1CC[C@]3(CCCN(C(=O)[C@H]4CN4)C3)C1=O)C(=O)N1CCC[C@H](N1)C(=O)OCC(C)(C)C2", "NRAS G12C (Homo sapiens, UniProt P01111+P62937, G12C)", "> 8.00"],
  ["CCn1c(-c2cccnc2[C@H](C)OC)c2c3cc(ccc31)-c1cc(O)cc(c1)C[C@H](NC(=O)[C@H](C(C)C)N1CCCC3(CN(C(=O)[C@H]4CN4)C3)C1=O)C(=O)N1CCC[C@H](N1)C(=O)OCC(C)(C)C2", "NRAS G12C (Homo sapiens, UniProt P01111+P62937, G12C)", "> 8.00"]
]}
